- target-system: NRAS Q61K (Homo sapiens, UniProt P01111+P62937, Q61K)
- Sequence (P01111 whole entry Q61K, one chain of several): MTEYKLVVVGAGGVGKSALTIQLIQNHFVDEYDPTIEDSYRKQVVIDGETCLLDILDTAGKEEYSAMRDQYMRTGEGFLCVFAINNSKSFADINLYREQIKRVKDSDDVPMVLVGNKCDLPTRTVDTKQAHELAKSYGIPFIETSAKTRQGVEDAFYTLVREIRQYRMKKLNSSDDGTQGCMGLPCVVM
- assay-name: Disruption of BRAF RBD interaction with Ras (FRET / MOA assay, with Cyclophilin A)
- Type: biochemical
- settings: NRAS Q61K; read-out: NRAS Q61K FRET data IC50
- Text: Disruption of B-Raf Ras-Binding Domain (BRAF^RBD) Interaction with K-Ras by Compounds of the Invention (Also Called a FRET Assay or an MOA Assay) Note—The following protocol describes a procedure for monitoring disruption of K-Ras G12C (GMP-PNP) binding to BRAF^RBD by a compound of the invention. This protocol may also be executed substituting other Ras proteins or nucleotides. […]
pIC50: −log10 of the molar value.
test-readout: pIC50

Look up pIC50 for this compound: CCn1c(-c2cccnc2[C@H](C)OC)c2c3cc(ccc31)-c1csc(n1)C[C@H](NC(=O)[C@H](C(C)C)N(C)C(=O)N1CC(N(C)S(C)(=O)=O)C1)C(=O)N1CCC[C@H](N1)C(=O)OCC(C)(C)C2 (atropisomer, axis not shown) [Example A550] 7.00 to 8.00

Lookup CCn1c(-c2cc(N3CCN(C)CC3)cnc2[C@H](C)OC)c2c3cc(ccc31)-c1csc(n1)C[C@H](NC(C)=O)C(=O)N1CCC[C@H](N1)C(=O)OCC(C)(C)C2 [Example A321] 6.00 to 7.00

Param item: CCn1c(-c2cccnc2[C@H](C)OC)c2c3cc(ccc31)-c1csc(n1)C[C@H](NC(=O)[C@H](C(C)C)N(C)C(=O)N1CC([C@@H](C)OC)C1)C(=O)N1CCC[C@H](N1)C(=O)OCC(C)(C)C2 (atropisomer, axis not shown) [Example A278] 7.00 to 8.00

Would you mind doing CCn1c(-c2cccnc2[C@H](C)OC)c2c3cc(ccc31)-c1csc(n1)C[C@H](NC(=O)[C@H](C(C)C)N(C)C(=O)N1C[C@H]3CN(C)C[C@H]31)C(=O)N1CCC[C@H](N1)C(=O)OCC(C)(C)C2 [Example A497] as well? 6.00 to 7.00

Would you mind doing CCn1c(-c2cccnc2[C@H](C)OC)c2c3cc(ccc31)-c1csc(n1)C[C@H](NC(=O)C1CCC1)C(=O)N1CCC[C@H](N1)C(=O)OCC(C)(C)C2 [Example A369] as well? 6.00 to 7.00

And the next one, CCn1c(-c2cc(N3CCN(C)CC3)cnc2[C@H](C)OC)c2c3cc(ccc31)-c1csc(n1)C[C@H](NC(=O)[C@H](C(C)C)N(C)C(=O)[C@H]1CCNC1=O)C(=O)N1CCC[C@H](N1)C(=O)OCC(C)(C)C2 (single isomer, unassigned) [Example A449] ? 6.00 to 7.00

Then C=CC(=O)N1CCO[C@H]2CN(C(=O)N(C)[C@H](C(=O)N[C@H]3CN4CCC=C(C4)c4ccc5c(c4)c(c(-c4cccnc4[C@H](C)OC)n5CC)CC(C)(C)COC(=O)[C@@H]4CCCN(N4)C3=O)C(C)C)C[C@H]21 [Example A552] ? 5.00 to 6.00

Lookup CCn1c(-c2cccnc2[C@H](C)OC)c2c3cc(ccc31)-c1csc(n1)C[C@H](NC(=O)[C@H](C(C)C)N(C)C(=O)N1CCO[C@@H](C)C1)C(=O)N1CCC[C@H](N1)C(=O)OCC(C)(C)C2 (atropisomer, axis not shown) [Example A309] 7.00 to 8.00

----------
Kindly state pIC50 for each of the entries shown.
- target-system: KRAS G12D (Homo sapiens, UniProt P01116+P62937, G12D)
- Sequence (P01116 1-169 isoform P01116-2 G12D limits assumed): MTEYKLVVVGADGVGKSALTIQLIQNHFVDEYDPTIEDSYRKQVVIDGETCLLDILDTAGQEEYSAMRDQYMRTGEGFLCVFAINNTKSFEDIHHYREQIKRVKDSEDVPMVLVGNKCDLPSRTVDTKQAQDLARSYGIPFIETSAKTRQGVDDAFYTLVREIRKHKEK
- Sequence (P62937 whole entry): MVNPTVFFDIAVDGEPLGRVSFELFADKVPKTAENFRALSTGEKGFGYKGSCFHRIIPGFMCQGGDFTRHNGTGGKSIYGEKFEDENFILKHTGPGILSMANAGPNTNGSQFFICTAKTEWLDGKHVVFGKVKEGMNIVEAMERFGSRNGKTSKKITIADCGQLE
- assay-name: Ras-Raf disruption / FRET / MOA assay (BRAF RBD)
- Type: biochemical
- settings: Ras-Raf disruption, with Cyclophilin A; read-out: KRAS G12D FRET data IC50
pIC50: −log10 of the molar value.

What does the data say about its pIC50? Entry: CCn1c(-c2cccnc2[C@H](C)OC)c2c3cc(ccc31)-c1csc(n1)C[C@H](NC(=O)[C@H](C(C)C)N(C)C(=O)N1CC[C@@H](N(C)C(=O)[C@H]3CN3)C1)C(=O)N1CCC[C@H](N1)C(=O)OCC(C)(C)C2 (atropisomer, axis not shown) 5.00 to 6.00

Another: CCn1c(-c2cnccc2COC)c2c3cc(ccc31)-c1cccc(c1)C[C@H](NC(=O)[C@H](C(C)C)N(C)C(=O)CCN=C=NCc1ccc(OC)cc1OC)C(=O)N1CCC[C@H](N1)C(=O)OCC(C)(C)C2 < 5.00

Could you do the same for CCn1c(-c2cccnc2[C@H](C)OC)c2c3cc(ccc31)-c1cc(O)cc(c1)C[C@H](NC(=O)[C@H](C(C)C)N(C)C(=O)N1CCN(C(=O)[C@@H]3CN3)C(=O)C1)C(=O)N1CCC[C@H](N1)C(=O)OCC(C)(C)C2 , please? 6.00 to 7.00

Lookup CCn1c(-c2cccnc2[C@H](C)OC)c2c3cc(ccc31)-c1cc(O)cc(c1)C[C@H](NC(=O)[C@H](C(C)C)N(C)C(=O)C1CC3(C1)CN(C(=O)[C@@H]1CN1)C3)C(=O)N1CCC[C@H](N1)C(=O)OCC(C)(C)C2 5.00 to 6.00

Consider next the molecule CCn1c(-c2cccnc2[C@H](C)OC)c2c3cc(ccc31)-c1cc(O)cc(c1)C[C@H](NC(=O)[C@H](C(C)C)N(C)C(=O)[C@H]1CCN(C(=O)[C@H]3CN3)C1)C(=O)N1CCC[C@H](N1)C(=O)OCC(C)(C)C2 (single isomer, unassigned) [Example 43B] in the same way. 5.00 to 6.00

Now consider CCn1c(-c2cnccc2COC)c2c3cc(ccc31)-c1cccc(c1)C[C@H](NC(=O)[C@H](C(C)C)N(C)C(=O)CC1(N=C=Nc3ccc(OC)cc3)CC1)C(=O)N1CCC[C@H](N1)C(=O)OCC(C)(C)C2 . < 5.00

One more molecule: CCn1c(-c2cccnc2[C@H](C)OC)c2c3cc(ccc31)-c1cc(O)cc(c1)C[C@H](NC(=O)[C@H](C(C)C)N(C)C(=O)[C@@H]1CCN(C(=O)[C@H]3CN3)C1)C(=O)N1CCC[C@H](N1)C(=O)OCC(C)(C)C2 (atropisomer, axis not shown) 7.00 to 8.00

// repeat for CCn1c(-c2cccnc2[C@H](C)OC)c2c3cc(ccc31)-c1cc(O)cc(c1)C[C@H](NC(=O)[C@@H](COC1CN(C(=O)[C@H]3CN3)C1)C(C)C)C(=O)N1CCC[C@H](N1)C(=O)OCC(C)(C)C2 and report 5.00 to 6.00

Repeat for the following molecule: CCn1c(-c2cccnc2[C@H](C)OC)c2c3cc(ccc31)-c1cc(O)cc(c1)C[C@H](NC(=O)[C@H](C(C)C)N(C)C(=O)[C@@H]1CCCN(C(=O)[C@H]3CN3)C1)C(=O)N1CCC[C@H](N1)C(=O)OCC(C)(C)C2 (atropisomer, axis not shown) 6.00 to 7.00

One more molecule: CCn1c(-c2cccnc2[C@H](C)OC)c2c3cc(ccc31)-c1cccc(c1)C[C@H](NC(=O)[C@H](C(C)C)N(C)C(=O)[C@H]1CC[C@H](N=C=NCc3ccccc3OC)C1)C(=O)N1CCC[C@H](N1)C(=O)OCC(C)(C)C2 5.00 to 6.00

Proceed to CCn1c(-c2cccnc2[C@H](C)OC)c2c3cc(ccc31)-c1cc(O)cc(c1)C[C@H](NC(=O)[C@H](C(C)C)N(C)C(=O)N1CC[C@H](N(C)C(=O)[C@H]3CN3)C1)C(=O)N1CCC[C@H](N1)C(=O)OCC(C)(C)C2 (atropisomer, axis not shown) 6.00 to 7.00

Subsequent entry: CCn1c(-c2cnccc2COC)c2c3cc(ccc31)-c1cccc(c1)C[C@H](NC(=O)[C@H](C(C)C)N(C)C(=O)CC(C)(C)N=C=Nc1ccc(OC)cc1)C(=O)N1CCC[C@H](N1)C(=O)OCC(C)(C)C2 < 5.00

Entry to check: CCn1c(-c2cccnc2[C@H](C)OC)c2c3cc(ccc31)-c1csc(n1)C[C@H](NC(=O)[C@H](C(C)C)N(C)C(=O)N1CC(CN(C)C(=O)[C@@H]3CN3)C1)C(=O)N1CCC[C@H](N1)C(=O)OCC(C)(C)C2 (atropisomer, axis not shown) 6.00 to 7.00

Another molecule to look at: CCn1c(-c2cccnc2[C@H](C)OC)c2c3cc(ccc31)-c1cc(O)cc(c1)C[C@H](NC(=O)[C@H](C(C)C)N(C)C(=O)N1C[C@@H]3[C@H]1CCN3C(=O)[C@@H]1CN1)C(=O)N1CCC[C@H](N1)C(=O)OCC(C)(C)C2 (atropisomer, axis not shown) 5.00 to 6.00

Repeat for the following molecule: CCn1c(-c2cccnc2[C@H](C)OC)c2c3cc(ccc31)-c1cc(O)cc(c1)C[C@H](NC(=O)[C@H](C(C)C)N(C)C(=O)N1CCN(C(=O)[C@H]3CN3)C(=O)C1)C(=O)N1CCC[C@H](N1)C(=O)OCC(C)(C)C2 6.00 to 7.00
